Origin of values: the supplement of paper PMC12338614

B1: library; numbered along this chain (parent)
chain: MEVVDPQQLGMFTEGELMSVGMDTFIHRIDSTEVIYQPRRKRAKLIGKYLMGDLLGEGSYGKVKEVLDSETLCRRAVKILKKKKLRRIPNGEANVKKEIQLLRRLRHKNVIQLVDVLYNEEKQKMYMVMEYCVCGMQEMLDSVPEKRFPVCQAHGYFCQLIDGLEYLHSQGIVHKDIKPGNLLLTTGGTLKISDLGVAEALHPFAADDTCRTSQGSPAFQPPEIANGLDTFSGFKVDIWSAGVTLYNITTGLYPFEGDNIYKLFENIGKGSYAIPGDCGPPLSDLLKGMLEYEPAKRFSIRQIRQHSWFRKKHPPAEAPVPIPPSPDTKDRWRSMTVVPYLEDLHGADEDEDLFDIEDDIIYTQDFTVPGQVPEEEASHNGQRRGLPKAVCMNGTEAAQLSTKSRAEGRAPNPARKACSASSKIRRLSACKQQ

Variants of: B1
Experiment: STK11 functional score (HeLa growth suppression), rescaled enrichment; synonymous median = 1, nonsense median = 0 (normalised score)
Details: with HeLa; variant type: missense
Response field label: string, one of 1.0 (STK11 functional score strictly below 1) or 0.0.

Example entries begin here.
C132Q 0.0
L140E 1.0
D194L 1.0

Q: Quick check: does D208S have STK11 functional score under 1?
Result: 0.0

Q: Now consider T363G and answer again.
Result: 0.0
